# Test system: SN12C
# Measurement Notes: NCI tumour cell line growth inhibition, 48 h
Activity calls are given as the source filed them. Rule as the data show it: active = GI50 up to about 1.1 µM and inactive = higher. Starred links: 1 amine or outer side, 2 acyl side, 3 side chain; linkers in the order of their positions; H or OH if unused. Positions of bridges follow the written chain, without caps; N, C: chain ends. Non-standard residues stand in square brackets, D forms with d. Residues, ends and D or L forms follow the SMILES beside them. *: point of attachment. X40 = CC[C@H](C)[C@@H](N[*:1])[C@@H](O)CC(=O)[*:2]; NMeY = CN[C@@H](Cc1ccc(O)cc1)C(=O)O; dNMeL = CN[C@H](CC(C)C)C(=O)O; Hiv = CC(C)[C@H](O)C(=O)O; Pyruvoyl = CC(=O)C(=O)*
Please provide measured GI50 for the entries that follow.

Fill: GI50 (SN12C) for this molecule `O=Cc1ccc2c(c1)CC1(Cc3ccccc3C1)C2`
18.1 µM (inactive)

Report GI50 from SN12C testing of `COC(=O)C1=C(CCCCO[Si](C)(C)C(C)(C)C)NC(=O)N2[C@@H](CCOCc3ccccc3)CC[C@H]12`
16.7 µM (inactive)

// fetch GI50; item: `CC(=O)Oc1ccccc1[C@H]1CC(=O)C[C@H](c2ccccc2OC(C)=O)C12C(=O)c1ccccc1C2=O` ; system: SN12C
37.4 µM (inactive)

Please report GI50 with SN12C for item `CC(=O)Oc1ccc(/C=C/C(=O)O[C@@H](C(=O)O)[C@@H](OC(=O)/C=C/c2ccc(OC(C)=O)c(OC(C)=O)c2)C(=O)O)cc1OC(C)=O` .
> 100 µM (inactive)

Give the observed GI50 of Cc1cccc(N2C(=O)C(=O)C(c3nc4ccccc4s3)/C(=N/NC(=S)NN)C2=O)c1C (stereo unspecified) for SN12C.
> 100 µM (inactive)

Report value: GI50, system: SN12C, molecule: CC1OC2OC3C(OCC(O)C3O)OC(=O)[C@]34CCC(C)(C)CC3C3=CCC5[C@@]6(C)C[C@H](O)[C@H](OC7OC(CO)C(O)C(O)C7OC7OC(COC(=O)CC(C)(O)CC(=O)OC1C(OC1OC(CO)C(O)C(O)C1O)C2O)C(O)C(O)C7O)[C@@](C)(CO)C6CC[C@@]5(C)[C@]3(C)CC4 (stereo partly specified)
4.98 µM (inactive)

Write GI50 of `S=c1[nH]n2c(CCCCCCCCc3nnc4sc(=S)[nH]n34)nnc2s1` ; system used: SN12C
> 100 µM (inactive)

GET GI50 where system = SN12C and item = NC(Cc1n[nH]c2ccccc12)C(=O)O (stereo unspecified)
> 100 µM (inactive)

Please look at `CCOC(=O)/C(=N\Nc1ccc(-n2c(C)nc3ccc(Br)cc3c2=O)cc1)C(C)=O` and tell me its recorded GI50 on SN12C.
> 100 µM (inactive)

Report measured GI50 on SN12C; entry: O=C1OC(C2Cc3cc4c(cc3C2=O)CCC4)c2ccccc21 (stereo unspecified)
63 µM (inactive)

Quote SN12C GI50 for entry `COc1ccc2c(c1)c1c3c(ccc4ncn2c43)N(CCO)CCN=1` .
0.158 µM (active)

Would you please give the reported GI50 of `Clc1ncnc(Cl)c1Cl` with SN12C?
> 100 µM (inactive)

State measured GI50 of the molecule `C/C(=N\NC(=O)c1ccncc1)c1cccc(F)c1` with SN12C.
> 10 µM (inactive)

Report its GI50 with SN12C as the test system: NCCCCCC(CCN)SCC1OC(n2cnc3c(N)ncnc32)C(O)C1O (stereo unspecified)
> 574 µM (inactive)

Under SN12C: report GI50 of CCCCSCCC(N)P(=O)(O)O (stereo unspecified) .
> 100 µM (inactive)

Report the value of GI50 obtained on SN12C for `CC(C)(C)[Si](C)(C)O/N=C\c1ccc(O[Si](C)(C)C(C)(C)C)cc1` .
61.2 µM (inactive)

# return GI50 for Nc1ncnc2c1ncn2C1OC(COP(=O)(O)CP(=O)(O)O)C(O)C1O (stereo unspecified) , test system: SN12C
> 100 µM (inactive)

Provide SN12C GI50 reading for `COC(=O)C1=C(O)C(O)=C(C(=O)OC)CC1` .
> 100 µM (inactive)

Param request: GI50 | system SN12C | item CC(=O)N1C(Nc2nccs2)CCN1c1ccccc1 (stereo unspecified)
> 10 µM (inactive)

State, for SN12C, measured GI50 of the molecule listed here: `CCCCCCCCCCCCNC(=O)NCC(OCC)OCC`
> 10 µM (inactive)

Enter GI50 (test system SN12C) for `Cc1cc2c(C(C)C)c(O)c(O)c(/C=N\CCO)c2c(O)c1-c1c(C)cc2c(C(C)C)c(O)c(O)c(/C=N/CCO)c2c1O`
2.84 µM (inactive)

Print SN12C GI50 for `Cc1ccc(-n2nnc3c(NNc4ccccc4)n[nH]c(=O)c32)cc1` .
> 100 µM (inactive)

Recall the reported GI50 of `C[Si](C)(c1ccccc1)C1CC(=O)CC(=O)C1` when tested on SN12C.
> 100 µM (inactive)

Retrieve GI50 on SN12C; query `CCN(CC)Cc1cc(Nc2c3ccccc3nc3c2[nH]c2ccccc23)ccc1O`
1.67 µM (inactive)

Give reported GI50 for COC(=O)C(=O)C(C(=O)C(=O)Nc1ccccc1C(C)=O)c1nc2ccc(C(=O)c3ccccc3)cc2nc1O (stereo unspecified) (SN12C)
> 100 µM (inactive)

Fill in GI50 for `CN(CC#N)C(=O)Cc1ccc([N+](=O)[O-])cc1` tested with SN12C.
> 10 µM (inactive)

Under SN12C: report GI50 of C#CC1(O)CCC2[C@@H]3CCc4cc(Oc5nc(F)nc(-c6c(C)c(C(=O)OCC)n7ccccc67)n5)ccc4C3CC[C@@]21C (stereo partly specified) .
> 100 µM (inactive)

Param request: GI50 | system SN12C | item `Cc1ccc(S(=NS(=O)(=O)c2ccc(C)cc2)c2ccc(C)cc2)cc1`
> 100 µM (inactive)

Jot down GI50 (SN12C) of `Cc1c(C)c(S(=O)(=O)N(CCCN)OCCCN)c(C)c2c1OC(C)(C)C2` .
61.1 µM (inactive)

Answer briefly: GI50 recorded on SN12C for Cc1ccc2c(n1)NC(=O)C(Cc1ccccc1)(N=[N+]=[N-])C2=O (stereo unspecified)
> 100 µM (inactive)

Report GI50 from SN12C testing of CC[C@H](C)[C@H]1NC(=O)[C@@H](NC(=O)[C@@H](CC(C)C)N(C)C(=O)[C@@H]2CCCN2C(=O)C(C)=O)[C@@H](C)OC(=O)[C@H](Cc2ccc(OC)cc2)N(C)C(=O)[C@@H]2CCCN2C(=O)[C@H](CC(C)C)NC(=O)[C@H](C(C)C)OC(=O)C[C@@H]1O (Pyruvoyl-P[dNMeL]T[X40][Hiv]LP[NMeY](Me); ester 3-C)
0.0043 µM (active)

Report its GI50 with SN12C as the test system: `CCOC(=O)C(Cc1c2ccccc2cc2ccccc12)(NC(C)=O)C(=O)OCC`
> 100 µM (inactive)

Provide the reported GI50 (system: SN12C) for `O=C1OC(c2ccc(O)c(Cl)c2)(c2ccc(O)c(Cl)c2)c2ccc(Br)c3cccc1c23.O=C1OC(c2ccc(O)c(Cl)c2)(c2ccc(O)c(Cl)c2)c2cccc3c(Br)ccc1c23`
15 µM (inactive)

State, for SN12C, measured GI50 of the molecule listed here: `CN(C)c1ccc(-c2cc(O)c3cc4c(cc3n2)OCO4)cc1`
> 100 µM (inactive)

Please look at O=C1c2cccc(O)c2C(=O)c2c(OC3OC(CO)C(O)C(O)C3O)cccc21 (stereo unspecified) and tell me its recorded GI50 on SN12C.
24.7 µM (inactive)

Tell me its GI50 on SN12C: `COc1ccc(Nc2nc3c(N)cc(C(F)(F)F)cc3nc2-c2ccccc2)cc1`
> 100 µM (inactive)
